Where do the numbers come from? From paper PMC7056649.

# test-system: Saccharomyces cerevisiae α-glucosidase (Saccharomyces cerevisiae, UniProt P53341)
# Sequence (P53341 whole entry): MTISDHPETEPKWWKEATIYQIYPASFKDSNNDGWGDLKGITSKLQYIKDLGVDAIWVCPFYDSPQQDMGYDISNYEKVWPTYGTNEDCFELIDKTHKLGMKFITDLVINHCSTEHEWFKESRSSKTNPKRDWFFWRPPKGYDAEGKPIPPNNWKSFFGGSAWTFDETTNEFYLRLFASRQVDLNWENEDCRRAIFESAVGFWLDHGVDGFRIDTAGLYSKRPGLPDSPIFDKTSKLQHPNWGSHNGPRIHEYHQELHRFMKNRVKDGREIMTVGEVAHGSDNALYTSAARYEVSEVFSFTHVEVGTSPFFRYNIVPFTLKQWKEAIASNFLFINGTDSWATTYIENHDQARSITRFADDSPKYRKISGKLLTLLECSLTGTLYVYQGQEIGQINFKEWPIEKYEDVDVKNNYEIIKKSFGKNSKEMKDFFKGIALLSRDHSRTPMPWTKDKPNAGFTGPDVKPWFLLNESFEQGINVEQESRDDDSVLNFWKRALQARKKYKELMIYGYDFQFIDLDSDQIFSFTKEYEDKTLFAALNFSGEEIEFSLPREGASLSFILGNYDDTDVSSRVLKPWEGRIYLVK
# protocol-summary: α-Glucosidase inhibitory activity and kinetic analysis
# Format: biochemical
# recorded-conditions: Ki, yeast α-glucosidase hydrolysis of PNPG; Dixon plots; value in brackets
experimental-readout: Ki (µM)
# output: bare number, implied unit µM

According to the records, this compound Oc1cc(O)cc(/C=C/c2ccc(O)cc2O)c1 [Oxyresveratrol, trans-3,5,2′,4′-tetrahydroxystilbene] displays Ki of 223

---

# test-system: Saccharomyces cerevisiae α-glucosidase (Saccharomyces cerevisiae)
# protocol-summary: α-Glucosidase inhibitory activity and kinetic analysis
# Format: biochemical
# recorded-conditions: Ki, yeast α-glucosidase hydrolysis of PNPG; determined by Dixon plots
experimental-readout: pKi
API: returns pKi as number; meaning -log10 of concentration in mol/L.

According to the records, this compound Oc1cc(O)cc(/C=C/c2ccc(O)cc2O)c1 [Oxyresveratrol, trans-3,5,2′,4′-tetrahydroxystilbene] displays pKi of 3.65
